TGT: Recombinant Human Anaplastic Lymphoma Kinase (Homo sapiens)
Construct: purchased Invitrogen, Carlsbad, Calif
Sequence (Q9UM73 19-1620): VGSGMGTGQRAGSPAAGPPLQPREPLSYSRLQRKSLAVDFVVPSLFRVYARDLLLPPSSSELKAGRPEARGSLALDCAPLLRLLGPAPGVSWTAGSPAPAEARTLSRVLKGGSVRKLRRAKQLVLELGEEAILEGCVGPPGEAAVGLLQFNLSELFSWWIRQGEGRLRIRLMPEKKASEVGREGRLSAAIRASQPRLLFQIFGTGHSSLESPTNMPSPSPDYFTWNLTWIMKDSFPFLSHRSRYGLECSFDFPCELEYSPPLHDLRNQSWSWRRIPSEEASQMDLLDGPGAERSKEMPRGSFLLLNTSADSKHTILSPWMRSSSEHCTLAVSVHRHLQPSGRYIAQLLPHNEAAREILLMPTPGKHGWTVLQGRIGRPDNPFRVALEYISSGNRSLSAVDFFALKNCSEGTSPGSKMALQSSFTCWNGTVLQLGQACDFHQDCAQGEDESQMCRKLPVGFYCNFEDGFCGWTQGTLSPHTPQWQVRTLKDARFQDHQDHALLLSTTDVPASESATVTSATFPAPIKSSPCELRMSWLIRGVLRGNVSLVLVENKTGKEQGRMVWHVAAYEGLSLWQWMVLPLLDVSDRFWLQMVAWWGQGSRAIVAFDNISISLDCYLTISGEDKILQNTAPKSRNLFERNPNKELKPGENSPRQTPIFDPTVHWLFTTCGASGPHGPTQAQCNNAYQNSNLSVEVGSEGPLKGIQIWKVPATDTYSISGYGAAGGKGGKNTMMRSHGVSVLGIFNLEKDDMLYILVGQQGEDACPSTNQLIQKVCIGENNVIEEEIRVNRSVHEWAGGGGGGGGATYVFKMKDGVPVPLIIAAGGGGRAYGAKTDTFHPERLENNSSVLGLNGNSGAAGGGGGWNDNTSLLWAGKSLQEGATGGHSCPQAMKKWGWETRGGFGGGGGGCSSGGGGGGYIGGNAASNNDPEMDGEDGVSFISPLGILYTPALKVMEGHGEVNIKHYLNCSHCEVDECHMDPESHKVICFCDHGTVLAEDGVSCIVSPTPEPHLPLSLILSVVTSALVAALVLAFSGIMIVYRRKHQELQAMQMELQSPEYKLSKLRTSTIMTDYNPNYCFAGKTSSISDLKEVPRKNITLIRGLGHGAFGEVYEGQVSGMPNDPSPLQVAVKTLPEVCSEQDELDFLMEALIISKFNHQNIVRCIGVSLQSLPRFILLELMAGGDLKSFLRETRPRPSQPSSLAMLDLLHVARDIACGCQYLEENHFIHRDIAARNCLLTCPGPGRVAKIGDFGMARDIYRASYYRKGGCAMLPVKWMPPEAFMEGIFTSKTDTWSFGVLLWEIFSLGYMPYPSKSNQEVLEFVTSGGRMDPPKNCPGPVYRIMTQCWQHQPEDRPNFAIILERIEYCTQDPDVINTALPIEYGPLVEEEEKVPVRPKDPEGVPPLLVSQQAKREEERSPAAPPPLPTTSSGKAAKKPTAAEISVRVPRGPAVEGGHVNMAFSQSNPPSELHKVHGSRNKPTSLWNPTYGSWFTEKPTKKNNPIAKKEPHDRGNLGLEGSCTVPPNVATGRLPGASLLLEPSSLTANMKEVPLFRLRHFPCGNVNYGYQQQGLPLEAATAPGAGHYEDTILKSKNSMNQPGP
ASSAY INFO: ALK HTRF kinase assay
Format: biochemical
COND: Table B1; cells without percent sign
pIC50: −log10 of the molar value. Where a name gives a salt, the structure may show the parent alone.
OUTCOME MEASURE: pIC50

Answered examples (2):
> print(dat)
                                   compound  observed.measurement
1  OCc1cc2cc(c1)Nc1nc(ncc1Cl)Nc1cccc(c1)CC2 [Example B24, trifluoroacetate]                  6.11
2  O=C(Nc1ccc2cc1CCc1cccc(c1)Nc1ncc(Cl)c(n1)N2)C1CC1 [Example B27, trifluoroacetate]                  6.06

A. O=C(Nc1ccc2cc1CCc1cccc(c1)Nc1ncc(Cl)c(n1)N2)c1nccs1 [Example B52, trifluoroacetate]
B. O=C(Nc1ccccc1)Nc1cc2cc(c1)Nc1nc(ncc1Cl)Nc1cccc(c1)CC2 [Example B202, trifluoroacetate]
C. O=C(Nc1ccc2cc1CCc1cccc(c1)Nc1ncc(Cl)c(n1)N2)c1cccs1 [Example B34, trifluoroacetate]
Order field: pIC50 | Direction: descending (largest first) Reply with the labels, ordered as the question asks.
C, A, B
